The reported measurements were obtained from patent US10993984B2.

assay: in vivo; details: dog, iv, 0.2 mg
Bridge positions count the residues as written; N and C are the ends. Peptide text beside a SMILES is read from it.
VALUE_TYPE: AUC(0-inf) (ng·h/mL)
Field: numeric (ng·h/mL). Do not append units.

Query block: // query AUC(0-inf) value for entry NCCCC[C@H](NC(=O)[C@@H]1CCCN1C(=O)[C@@H]1CSSC[C@H](NC(=O)CNC(=O)CNC(=O)CN)C(=O)N[C@@H](Cc2ccc(O)cc2)C(=O)N[C@@H](Cc2ccccc2)C(=O)N[C@@H](CCC(N)=O)C(=O)N[C@@H](CC(N)=O)C(=O)N1)C(=O)NCC(N)=O [IV terlipressin, Terlipressin] (H-GGGCYFQNCPKG-NH2; disulfide 4-9)
Result block: 9.14
